test_details: Half life of the compound in water
Assay type: physicochemical
measurement_kind: half-life (h)
Field format: number, assumed h, no unit text.

Past entries and their recorded results:
| compound | unit_string | half-life |
| --- | --- | --- |
| CC(C)(C)[Si]([18F])(CCO)C(C)(C)C | h | 8 |
| CC(C)(C)[Si](F)(CCn1cc(CC(N)C(=O)O)nn1)C(C)(C)C (stereo not given) | h | 16 |
| CC(C)(C)[Si](F)(CCO)C(C)(C)C | h | 8 |

Kindly review the next compound as well.
-- ask Entry CC(C)(C)[Si]([18F])(CCn1cc(CC(N)C(=O)O)nn1)C(C)(C)C (stereo not given) has what half-life?
-- reply 16

* * *

test_details: Lipophilicity, log D of the compound
Type: physicochemical
run_parameters: octanol/water
measurement_kind: logD

-- ask Entry `CC(C)C[C@H](NC(=O)C[C@H](O)[C@H](CC(C)C)NC(=O)[C@H](Cc1cnc[nH]1)NC(=O)CN(C)C(=O)[C@@H](NC(=O)[C@H](C)NC(=O)[C@H](Cc1c[nH]c2ccccc12)NC(=O)[C@H](CCC(N)=O)NC(=O)CCCCNC(=O)[C@H](CCCNC(=N)N)NC(=O)Cc1ccc([Si]([18F])(C(C)(C)C)C(C)(C)C)cc1)C(C)C)C(N)=O` has what logD?
-- reply 1.3
